Tested on: K-562 leukemia
Experiment: NCI-60 one-dose screen, 48 h
Conditions: 10 µM unless noted
Protocol: Cells are grown in 96 well plates and exposed to the test compound for 48 hours. Compounds are tested at a single concentration, which is 10^-5 M for most compounds. The reported endpoint is percent growth (GI% or GIPRCNT), where numbers from 0 - 100% represent growth inhibition, and numbers from -100% - 0 represent cell death. For example, a value of 40 represents 60% growth inhibition. A value of 0 means no net growth occurred over the course of the experiment. […]
This is part of a sample that, as a whole, favours compounds with a hit. Of some 83,000 tested, about 20% had one in any assay. Calls of active or inactive are those of the source. Rule for the calls: active = growth percent below 10; inactive = the rest.
Hi there, use one of these labels in your reply, thanks! Yes for active, No for inactive

CCOC(=O)C(=Cc1ccc(-c2ccccc2)cc1)C(=O)OCC    No
CS(=O)(=O)c1nnc(-c2ccccc2)s1    No
Clc1c(Cl)[n+](Cc2ccc3ccccc3c2)cn1Cc1ccc2ccccc2c1    Yes
CCCCNC(=O)c1cc([N+](=O)[O-])cc(C2CCCCC2)c1O    No
NS(=O)(=O)c1ccc(-c2cc(-c3nnc(SCC(=O)Nc4ccc(C(=O)/C=C/c5ccc(Cl)cc5)cc4)n3-c3ccccc3)c3ccccc3n2)cc1    No

// return assay outcome for Cc1cccc(N2CCC(=O)NC2=S)c1
No

// return assay outcome for O=C(N/N=C/c1cc(Cl)ccc1O)c1ccccc1Nc1ccnc(C(F)(F)F)c1
No

// return assay outcome for Cc1cccc[n+]1C1c2ccccc2-c2ccccc21
No

// return assay outcome for CC(C)N1C(=O)/C(=c2\sc3n(c2=O)C2C(NN=3)N(C)C(=O)N2C)c2ccccc21 (centres undefined)
No

// return assay outcome for CC1=C2[C@@H](CC1)[C@]1(C)O[C@@](c3ccccc3)(C[C@H]1OC(=O)CO)[C@H]2OC(=O)/C=C/c1ccccc1
No

// return assay outcome for CC(=O)Oc1ccc(OC(C)=O)c2ccccc12
No

// return assay outcome for COc1ccc(-c2nc(-c3cn(C)c4ncccc34)cs2)cc1
No

// return assay outcome for [2H]C([2H])([2H])Oc1ccc(F)cc1/C=C/C(=O)/C=C(O)/C=C/c1cc(F)ccc1OC([2H])([2H])[2H]
No

// return assay outcome for CO[C@H]1CC(=O)n2c3ccccc3c3c4c(c5c6ccccc6n1c5c32)C(=O)NC4=O
No

// return assay outcome for C[C@H](CCCC(=O)NCC#CCN1CCN(C)CC1)[C@H]1CC[C@H]2[C@@H]3CC[C@@H]4CC(=O)CC[C@]4(C)[C@H]3CC[C@]12C
No

// return assay outcome for CN1CCN(c2ccc3nc4c(nc3c2C(F)(F)F)C(=O)c2ncccc2C4=O)CC1
Yes

// return assay outcome for Nc1[nH]n2cc(-c3ccc(F)cc3)nc2c1N=Nc1ccc(S(N)(=O)=O)cc1
No

// return assay outcome for CC1C(/C=N/NC(N)=S)C(C#N)(C#N)C1(C#N)C#N (centres undefined)
No

// return assay outcome for C=C1C(=O)O[C@H]2[C@H]1CC/C(COC(=O)NCc1ccc(Cn3c(=O)sn(-c4ccc(C#N)cc4)c3=O)cc1)=C\CC[C@@]1(C)O[C@@H]21
No

----------
What growth was measured for each of the following?
system: MOLT-4 leukemia; assay: NCI-60 one-dose screen, 48 h (100 = growth as untreated, 0 = no growth, -100 = all killed); details: 10 µM unless noted
This is part of a sample that, as a whole, favours compounds with a hit. Of some 83,000 tested, about 20% had one in any assay. Activity calls are given as the source filed them. How the source made its calls: active means growth percent below 10; inactive means the rest.

CCOC(=O)c1[nH]c2c(c1C)-c1[nH]c(=O)c(S(=O)(=O)c3ccccc3)cc1SC2    57.3% [100 µM] (inactive)
O=C(Cc1ccccc1)Nc1cccc(N=Cc2ccccc2O)c1    101% (inactive)
c1nc2ccc(-c3cc4ccc5[nH]ncc5c4c4c3CCCC4)cc2[nH]1    33.8% (inactive)
COc1cccc(/C=C/C(=O)c2cc3c(N)c(C(=O)Nc4cccc5ccccc45)sc3nc2C)c1    16.8% (inactive)
Nc1c(C(=O)Nc2cccc(Cl)c2)sc2nc3c(cc12)CCCC3    84.8% (inactive)
Cc1ccc(NC(=O)Cn2c(Br)nc3c2c(=O)n(C)c(=O)n3C)cc1    58.8% (inactive)

Consider the following items and state reported growth for each.
1. CN(C)CCN1C(=O)c2cccc3c(/C=C/CN4C(=O)c5cccc6cccc(c56)C4=O)ccc(c23)C1=O
2. Nc1[nH]c(=S)nc2oc(-c3ccccc3)c(-c3ccccc3)c12
3. CCOC(=O)C1=C(C)C(Cl)=N/C1=C\c1[nH]c(Cl)c(C)c1C(=O)OCC
4. O=C(/C=C(O)/C=C/c1cccc2[nH]ccc12)/C=C/c1cccc2[nH]ccc12

["34.3% (inactive)", "107% (inactive)", "80.3% (inactive)", "59.2% (inactive)"]

----------
tested on: CAKI-1 renal; experiment: NCI-60 one-dose screen, 48 h; conditions: 10 µM unless noted
About 83,000 compounds went through this panel and 20% of them were active in at least one assay; those are over-represented in the sample as a whole. Activity calls are given as the source filed them. The calls were made as follows: active = growth percent below 10; inactive = the rest.
Hi there, use one of these labels in your reply, thanks! active, inactive

Example cases with answers are listed next.
CCN(CC)CCCN1C(=O)c2c(c(C)c3c(oc4ccc(OC)cc43)c2C)C1=O    inactive
CSc1nn2c(-c3ccc4ccccc4c3)ccnc2c1C#N    inactive
N#C/C(=C\c1ccc([N+](=O)[O-])cc1)n1nnc2cc(F)c(F)cc21    active
COc1ccc(/C=C/c2c(C(=O)/C=C/c3ccccc3)c(C)nc3ccccc23)cc1    inactive
CC(C)N1C(=O)/C(=c2\sc3n(c2=O)C2C(NN=3)N(C)C(=O)N2C)c2ccccc21 (stereo not given)    inactive
CN(C)CCCC1(c2ccc(F)cc2)OCc2cc(-c3ccc4cc[nH]c4c3)ccc21 (stereo not given)    inactive

// return assay outcome for CC1=C(C(=O)Nc2ccccc2)C(c2ccc3c(c2)OCO3)NC(=S)N1 (stereo not given)
inactive

// return assay outcome for CCN(CC)CCN1C(=O)c2c(c(C)c3c(oc4ccc(O)cc43)c2C)C1=O
active

// return assay outcome for Cc1cc(Nc2ccc(C(=O)N3CCCC3)cc2)nc(NCCCNc2ccnc3cc(Cl)ccc23)n1
inactive

// return assay outcome for Cc1ccc(C(=O)Nc2cccc(C#Cc3cccc4[nH]nc(N)c34)c2)cc1C(F)(F)F
inactive

----------
system: ACHN renal; assay: NCI-60 one-dose screen, 48 h (100 = growth as untreated, 0 = no growth, -100 = all killed); conditions: 10 µM unless noted
This is part of a sample that, as a whole, favours compounds with a hit. Of some 83,000 tested, about 20% had one in any assay. Activity calls are given as the source filed them. Rule for the calls: active = growth percent below 10; inactive = the rest.
What growth was measured for each of the following?

Consider the following items and state reported growth for each.
1. COc1ccc(-c2nc3c(N)c(CO)cnc3s2)cc1
2. Cc1ccc2nc(-c3ccc(C(=O)NNC(=S)Nc4ccccc4)cc3)[nH]c2c1
3. N#C/C(=C\C=C\c1ccc(-c2cc(Cl)ccc2Cl)o1)c1nc2ccccc2s1
4. Cc1nn(-c2cc(NC3CCC(O)CC3)c3c(=O)[nH]c(CCC(F)(F)F)cc3c2)c2c1C(=O)CC(C)(C)C2 (centres undefined)
5. O=C1Nc2ccccc2C1(c1c[nH]c2ccccc12)c1c[nH]c2ccccc12
6. O=C(Cc1ccc(NC(=O)c2cccc(Cl)c2)cc1)NCc1ccccc1
7. CCc1ccc(CCC(=O)Nc2ncc(Cc3cc(Cl)ccc3Cl)s2)o1
8. CCOC(=O)C1=C(C)/C(=C\c2[nH]c(C)c(C(=O)OCC)c2C)N=C1C

1: 93.4% (inactive); 2: 99.6% (inactive); 3: 90.5% (inactive); 4: 31.5% (inactive); 5: 1.55% (active); 6: 65% (inactive); 7: 33.9% (inactive); 8: 96.5% (inactive)

Consider the following items and state reported growth for each.
1. COc1ccc(/C=C/C(=O)c2cc3c(N)c(C(=O)Nc4cccc(Cl)c4C)sc3nc2C)cc1
2. C#CC#CC#CC#CC#CC#CC#CC#CCC1OC[C@H](COC(=O)O[C@@H](C(=O)O[C@H]2C[C@@]3(O)[C@@H](OC(=O)c4ccccc4)[C@@H]4[C@]5(OC(C)=O)CO[C@@H]5C[C@H](O)[C@@]4(C)C(=O)[C@H](OC(C)=O)C(=C2C)C3(C)C)[C@@H](NC(=O)c2ccccc2)c2ccccc2)O1 (some centres undefined)
3. c1nc2ccc(-c3cc4ccc5[nH]ncc5c4c4c3CCCC4)cc2[nH]1

1. 17.7% (inactive)
2. 69.8% (inactive)
3. 52.2% (inactive)

----------
test system: UACC-62 melanoma; experiment: NCI-60 one-dose screen, 48 h (100 = growth as untreated, 0 = no growth, -100 = all killed); settings: 10 µM unless noted
This is part of a sample that, as a whole, favours compounds with a hit. Of some 83,000 tested, about 20% had one in any assay.
OBSERVED_PROPERTY: growth (%)
Numbers only, in %.

Sample answers from the record:
Oc1c(CN2CCCC2)cc(CSCc2ccccc2)c2cccnc12    -19.5
CCN(CC)CCCN1C(=O)c2c(c(C)c3c(oc4ccc(OC)cc43)c2C)C1=O    102
Cc1nc2c(c(=O)[nH]1)C(c1ccccc1)c1ccc3ccccc3c1O2 (centres undefined)    30.4

Consider the following items and state reported growth for each.
1. CC(C)CCN(CCC(C)C)CC(O)c1cc2c(c3ccccc13)CCCC2 (centres undefined)
2. COc1ccc(C2=NN(C(C)=O)C(c3cn(-c4ccccc4)nc3-c3ccc(Cl)cc3)C2)cc1 (centres undefined)
3. COc1ccc2nc(Cl)c(/C=C3\CC(c4ccccc4)=NN(c4ccccc4)C3=O)cc2c1
4. CCN1CCN(CC(=O)Nc2ccc(-c3cn4c(n3)sc3cc(Oc5ccnc(C(=O)NC)c5)ccc34)cc2)CC1
5. CCN1C(=O)N(CC)C2C1NN=c1s/c(=C3\C(=O)N(CC(C)C)c4ccccc43)c(=O)n12 (centres undefined)
6. C=C(CNCCO)[C@@H]1CC[C@]2(CO)CC[C@]3(C)[C@H](CC[C@@H]4[C@@]5(C)CCC(N)C(C)(C)[C@@H]5CC[C@]43C)[C@@H]12 (some centres undefined)
7. O=C(NNc1cnccn1)c1nc2cc(F)ccc2n2cccc12

49.8
20
71.8
66.9
27.7
9.7
-21.1
